# Test system: CYP3A4
# EXPERIMENTAL_PROTOCOL: P450 reaction phenotyping by selective human enzyme inhibitors
# Assay type: in vitro ADME
# DETAILS: human, human liver microsomes, probe PPL (formation of metabolite M2)
MEASURED_QUANTITY: inhibition at 10 min, 2 µM (%)
Express your answer in %, writing the number without its unit.

The compound CC(=O)N1CCN(c2ccc(OCC3COC(Cn4ccnc4)(c4ccc(Cl)cc4Cl)O3)cc2)CC1 (stereo not shown) showed inhibition at 10 min, 2 µM equal to 83

----------
# EXPERIMENTAL_PROTOCOL: Piperlongumine plasma protein binding (ultrafiltration)
# Assay type: in vitro ADME
# DETAILS: plasma protein (42 mg/mL); PPL 127.70 μM; read-out: fuplasma (free fraction of the compound in plasma)
MEASURED_QUANTITY: fraction unbound at 16 min, 127.7 μM
# output: bare number, no unit

The molecule COc1cc(/C=C/C(=O)N2CCC=CC2=O)cc(OC)c1OC showed fraction unbound at 16 min, 127.7 μM equal to 0.07

Reference for the values: paper PMC5041077
